test: Plasma concentration in Sprague-Dawley rat at 10 mg/kg, po administered in 10% solutol in D5W after 0.5 hrs; type: ADME, organism-based; set-up: dose 10 mg/kg, route oral
measurement_type: concentration at 0.5 h (ng/mL)
Form entry: value (ng/mL) — number only.

Exercise: Any idea what concentration at 0.5 h was measured for `CN(C)/N=C/c1c(N)ncnc1Nc1ccc2c(cnn2Cc2cccc(F)c2)c1` ?
Key: 10.1

* * *

assay: Plasma concentration in Sprague-Dawley rat at 10 mg/kg, po administered in 0.5% hydroxypropyl methylcellulose after 0.5 hrs; assay type: ADME, organism-based; design: dose 10 mg/kg, route oral
measurement_type: concentration at 0.5 h (ng/mL)
Only the number, expressed in ng/mL, is required.

Exercise: Endpoint output: concentration at 0.5 h of `Nc1ncnc(Nc2ccc3c(cnn3Cc3cccc(F)c3)c2)c1/C=N/N1CCCCC1` . Value?
Key: 23.4

Exercise: Find the recorded concentration at 0.5 h belonging to `Nc1ncnc(Nc2ccc3c(cnn3Cc3cccc(F)c3)c2)c1/C=N/N1CCOCC1` and report it.
Key: 26.1
